# measuredOn: Neuropeptide Y receptor type 1 (Homo sapiens)
# Sequence (P25929 whole entry): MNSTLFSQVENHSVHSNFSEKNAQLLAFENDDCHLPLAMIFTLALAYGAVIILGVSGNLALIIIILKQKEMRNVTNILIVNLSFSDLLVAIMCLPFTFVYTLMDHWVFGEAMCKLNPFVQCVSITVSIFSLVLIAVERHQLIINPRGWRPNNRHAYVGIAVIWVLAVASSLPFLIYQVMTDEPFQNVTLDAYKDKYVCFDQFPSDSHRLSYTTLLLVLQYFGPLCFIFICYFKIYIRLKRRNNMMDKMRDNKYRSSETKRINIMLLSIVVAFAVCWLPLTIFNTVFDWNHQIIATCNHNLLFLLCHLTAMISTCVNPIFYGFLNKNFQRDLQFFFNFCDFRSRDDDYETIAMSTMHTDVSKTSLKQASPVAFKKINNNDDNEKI
# Type: cell membranes, Membrane
# details: sk-n-mc
measurementName: IC50

1) CC(C)n1c(/C=C/C(O)CC(O)CC(=O)O)c(-c2ccc(F)cc2)c2ccccc21 (stereo not drawn): Not Active
2) OCc1ccccc1: Not Active
3) C=C1[C@@H]2CCC3[C@@](CC[C@@H]4[C@H](C(=O)O)C[C@@H](O[C@@H]5O[C@H](CO)[C@@H](OS(=O)(=O)[O-])[C@H](OS(=O)(=O)[O-])[C@H]5OC(=O)CC(C)C)C[C@@]34C)(C2)[C@@H]1O.[K+].[K+] (stereo partly drawn) [ATRACTYLOSIDE]: Not Active

----------
# measuredOn: C-C chemokine receptor type 5 (Homo sapiens, UniProt P51681)
# Sequence (P51681 whole entry): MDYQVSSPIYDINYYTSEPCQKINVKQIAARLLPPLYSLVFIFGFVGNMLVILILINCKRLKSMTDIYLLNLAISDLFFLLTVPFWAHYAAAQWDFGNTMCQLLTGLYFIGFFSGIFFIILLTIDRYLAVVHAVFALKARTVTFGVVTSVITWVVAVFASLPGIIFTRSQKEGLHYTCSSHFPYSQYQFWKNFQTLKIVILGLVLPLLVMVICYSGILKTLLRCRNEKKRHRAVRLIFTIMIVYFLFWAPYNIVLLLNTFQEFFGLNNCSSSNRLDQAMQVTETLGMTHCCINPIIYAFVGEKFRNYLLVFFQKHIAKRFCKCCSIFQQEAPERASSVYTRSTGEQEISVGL
# Type: cell membranes, Membrane
# details: hek293
measurementName: IC50

1) CC(=O)S[C@@H]1CC2=CC(=O)CC[C@]2(C)[C@H]2CC[C@@]3(C)[C@@H](CC[C@@]34CCC(=O)O4)[C@H]12 [SPIRONOLACTONE]: Not Active
2) C=CC[C@@H]1/C=C(\C)C[C@H](C)C[C@H](OC)[C@H]2O[C@@](O)(C(=O)C(=O)N3CCCC[C@H]3C(=O)O[C@H](/C(C)=C/[C@@H]3CC[C@@H](O)[C@H](OC)C3)[C@H](C)[C@@H](O)CC1=O)[C@H](C)C[C@@H]2OC [TACROLIMUS ANHYDROUS]: Not Active
3) NC(=O)c1ncn([C@@H]2O[C@H](CO)[C@@H](O)[C@H]2O)n1 [RIBAVIRIN]: Not Active
4) Clc1ccc(C(c2ccccc2Cl)C(Cl)Cl)cc1 (stereo not drawn) [MITOTANE]: Not Active
5) CSc1ccc2c(c1)N(CCC1CCCCN1C)c1ccccc1S2 (stereo not drawn) [THIORIDAZINE]: Not Active
6) Nc1nc2c(ncn2COC(CO)CO)c(=O)[nH]1 [GANCICLOVIR]: Not Active
7) CCCc1cc(=O)[nH]c(=S)[nH]1 [PROPYLTHIOURACIL]: Not Active
8) Oc1c(I)cc(I)c2cccnc12 [IODOQUINOL]: Not Active

----------
# measuredOn: Mitogen-activated protein kinase 1 (Homo sapiens, UniProt P28482)
# Sequence (P28482 whole entry): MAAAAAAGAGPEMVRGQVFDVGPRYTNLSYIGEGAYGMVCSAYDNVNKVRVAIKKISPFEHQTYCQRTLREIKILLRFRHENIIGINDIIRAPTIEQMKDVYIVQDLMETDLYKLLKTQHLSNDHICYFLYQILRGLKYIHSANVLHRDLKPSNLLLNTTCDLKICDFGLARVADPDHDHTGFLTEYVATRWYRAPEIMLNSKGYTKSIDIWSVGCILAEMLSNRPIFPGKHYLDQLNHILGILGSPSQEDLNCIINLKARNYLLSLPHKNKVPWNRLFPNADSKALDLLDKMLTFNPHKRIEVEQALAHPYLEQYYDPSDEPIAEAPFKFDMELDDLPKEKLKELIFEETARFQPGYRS
# assayProtocol: DRUGMATRIX: Protein Serine/Threonine Kinase, ERK2 enzyme inhibition (substrate: Myelin Basic Protein)
# Set-up: species or system Escherichia coli
# details: Not Active = under 50% inhibition at 10 µM
measurementName: IC50

1. Nc1ccc(S(=O)(=O)Nc2ccnn2-c2ccccc2)cc1 [SULFAPHENAZOLE]: Not Active
2. C=C1[C@@H]2CCC3[C@@](CC[C@@H]4[C@H](C(=O)O)C[C@@H](O[C@@H]5O[C@H](CO)[C@@H](OS(=O)(=O)[O-])[C@H](OS(=O)(=O)[O-])[C@H]5OC(=O)CC(C)C)C[C@@]34C)(C2)[C@@H]1O.[K+].[K+] (stereo partly drawn) [ATRACTYLOSIDE]: Not Active
3. O=C1OCCN1/N=C/c1ccc([N+](=O)[O-])o1 [FURAZOLIDONE]: Not Active

----------
# assayProtocol: DRUGMATRIX: GABAA, Chloride Channel, TBOB radioligand binding (ligand: [3H] TBOB)
# Type: cell membranes, Rattus norvegicus, Wistar, Cerebral cortex, Membrane
# details: Not Active = under 50% inhibition at 10 µM
measurementName: IC50

1) COS(C)(=O)=O [METHANESULFONIC ACID METHYL ESTER]: Not Active
2) CN1C[C@H](C(=O)N[C@]2(C)O[C@@]3(O)[C@@H]4CCCN4C(=O)[C@H](Cc4ccccc4)N3C2=O)C=C2c3cccc4[nH]cc(c34)C[C@H]21 [ERGOTAMINE]: Not Active
3) O=C1OCCN1/N=C/c1ccc([N+](=O)[O-])o1 [FURAZOLIDONE]: Not Active
4) COc1c(C)c2c(c(O)c1C/C=C(\C)CCC(=O)OCCN1CCOCC1)C(=O)OC2 [MYCOPHENOLATE MOFETIL]: Not Active
5) COc1c(N2CCNC(C)C2)c(F)cc2c(=O)c(C(=O)O)cn(C3CC3)c12 (stereo not drawn) [GATIFLOXACIN]: Not Active
6) COc1ccc2cc(CC(=O)O)ccc2c1: Not Active
7) CCC1(c2ccccc2)C(=O)NCNC1=O [PRIMIDONE]: Not Active
8) CC1(C)[C@@H](O[C@H]2O[C@H](C(=O)O)[C@@H](O)[C@H](O)[C@H]2O[C@@H]2O[C@H](C(=O)O)[C@@H](O)[C@H](O)[C@H]2O)CC[C@]2(C)[C@H]3C(=O)C=C4[C@@H]5C[C@@](C)(C(=O)O)CC[C@]5(C)CC[C@@]4(C)[C@]3(C)CC[C@@H]12 [GLYCYRRHIZIN]: Not Active
9) NCC[C@H](O)C(=O)N[C@@H]1C[C@H](N)[C@@H](O[C@H]2O[C@H](CN)[C@@H](O)[C@H](O)[C@H]2O)[C@H](O)[C@H]1O[C@H]1O[C@H](CO)[C@@H](O)[C@H](N)[C@H]1O [AMIKACIN]: Not Active
10) Cc1ccccc1N1CCN(CCc2nnc3n2CCCC3)CC1 [DAPIPRAZOLE]: Not Active
11) CCCSc1ccc2nc(NC(=O)OC)[nH]c2c1 [ALBENDAZOLE]: Not Active
12) NCC(=O)O [GLYCINE]: Not Active
13) O=C(O)c1cn(C2CC2)c2cc(N3CCNCC3)c(F)cc2c1=O [CIPROFLOXACIN]: Not Active

----------
# measuredOn: Neuropeptide Y receptor type 1 (Homo sapiens, UniProt P25929)
# Format: cell membranes, Membrane
# details: sk-n-mc
measurementName: Ki

1. CARBOPLATIN: Not Active
2. GOLD SODIUM THIOMALATE: Not Active
3. CISPLATIN: Not Active
4. IVERMECTIN: Not Active
5. OXALIPLATIN: Not Active

----------
# measuredOn: Insulin receptor (Rattus norvegicus)
# Sequence (P15127 27-759 limits assumed): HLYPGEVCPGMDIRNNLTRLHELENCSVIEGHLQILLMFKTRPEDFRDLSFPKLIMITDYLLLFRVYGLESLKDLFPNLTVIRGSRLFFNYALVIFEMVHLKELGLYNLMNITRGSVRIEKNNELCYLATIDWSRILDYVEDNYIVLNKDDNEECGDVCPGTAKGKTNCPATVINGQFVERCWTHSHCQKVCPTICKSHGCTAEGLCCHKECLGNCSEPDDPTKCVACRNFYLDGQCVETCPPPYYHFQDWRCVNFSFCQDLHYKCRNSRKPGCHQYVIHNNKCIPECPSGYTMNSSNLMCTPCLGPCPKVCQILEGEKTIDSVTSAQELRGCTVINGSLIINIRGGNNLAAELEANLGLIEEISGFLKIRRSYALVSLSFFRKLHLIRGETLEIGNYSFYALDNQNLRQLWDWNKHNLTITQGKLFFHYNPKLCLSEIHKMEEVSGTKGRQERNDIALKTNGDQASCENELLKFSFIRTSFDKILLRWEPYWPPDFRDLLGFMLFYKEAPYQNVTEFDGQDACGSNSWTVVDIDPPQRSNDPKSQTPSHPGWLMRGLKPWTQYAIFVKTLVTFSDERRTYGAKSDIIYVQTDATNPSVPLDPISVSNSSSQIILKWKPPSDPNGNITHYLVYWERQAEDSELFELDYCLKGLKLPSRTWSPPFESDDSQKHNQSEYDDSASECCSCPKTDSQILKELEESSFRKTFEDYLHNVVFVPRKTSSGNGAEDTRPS
# Sequence (P15127 764-1383 limits assumed): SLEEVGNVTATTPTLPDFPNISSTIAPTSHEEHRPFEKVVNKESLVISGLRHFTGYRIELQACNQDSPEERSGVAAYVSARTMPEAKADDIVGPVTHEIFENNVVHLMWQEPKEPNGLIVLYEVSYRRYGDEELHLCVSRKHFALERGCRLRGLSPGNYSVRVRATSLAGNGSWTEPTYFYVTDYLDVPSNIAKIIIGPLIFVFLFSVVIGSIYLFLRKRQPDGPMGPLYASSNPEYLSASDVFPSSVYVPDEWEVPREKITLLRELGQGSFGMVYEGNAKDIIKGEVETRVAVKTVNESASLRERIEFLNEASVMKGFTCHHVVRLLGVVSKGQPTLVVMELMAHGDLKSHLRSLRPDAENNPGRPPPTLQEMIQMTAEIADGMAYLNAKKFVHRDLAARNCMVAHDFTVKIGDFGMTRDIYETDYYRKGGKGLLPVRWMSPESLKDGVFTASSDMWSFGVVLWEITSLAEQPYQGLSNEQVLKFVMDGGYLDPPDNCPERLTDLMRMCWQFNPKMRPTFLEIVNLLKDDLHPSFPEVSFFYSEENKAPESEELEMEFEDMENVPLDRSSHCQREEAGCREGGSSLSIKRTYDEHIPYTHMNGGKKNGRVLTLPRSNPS
# Format: cell membranes, Wistar, Liver, Membrane
measurementName: IC50

1) CC1(C)S[C@@H]2[C@H](NC(=O)[C@H](NC(=O)N3CCNC3=O)c3ccccc3)C(=O)N2[C@H]1C(=O)O [AZLOCILLIN]: Not Active
2) CO[C@@H]1[C@@H](O[C@@H]2O[C@H](C)[C@@H](O[C@H]3C[C@@](C)(O)[C@@H](OC(=O)CC(C)C)[C@H](C)O3)[C@H](N(C)C)[C@H]2O)[C@@H](CC=O)C[C@@H](C)[C@@H](O)/C=C/C=C/C[C@@H](C)OC(=O)C[C@H]1O [KITASAMYCIN]: Not Active
3) CC(C)n1c(/C=C/C(O)CC(O)CC(=O)O)c(-c2ccc(F)cc2)c2ccccc21 (stereo not drawn) [FLUVASTATIN]: Not Active

----------
# measuredOn: Matrix metalloproteinase-9 (Homo sapiens, UniProt P14780)
# Sequence (P14780 whole entry): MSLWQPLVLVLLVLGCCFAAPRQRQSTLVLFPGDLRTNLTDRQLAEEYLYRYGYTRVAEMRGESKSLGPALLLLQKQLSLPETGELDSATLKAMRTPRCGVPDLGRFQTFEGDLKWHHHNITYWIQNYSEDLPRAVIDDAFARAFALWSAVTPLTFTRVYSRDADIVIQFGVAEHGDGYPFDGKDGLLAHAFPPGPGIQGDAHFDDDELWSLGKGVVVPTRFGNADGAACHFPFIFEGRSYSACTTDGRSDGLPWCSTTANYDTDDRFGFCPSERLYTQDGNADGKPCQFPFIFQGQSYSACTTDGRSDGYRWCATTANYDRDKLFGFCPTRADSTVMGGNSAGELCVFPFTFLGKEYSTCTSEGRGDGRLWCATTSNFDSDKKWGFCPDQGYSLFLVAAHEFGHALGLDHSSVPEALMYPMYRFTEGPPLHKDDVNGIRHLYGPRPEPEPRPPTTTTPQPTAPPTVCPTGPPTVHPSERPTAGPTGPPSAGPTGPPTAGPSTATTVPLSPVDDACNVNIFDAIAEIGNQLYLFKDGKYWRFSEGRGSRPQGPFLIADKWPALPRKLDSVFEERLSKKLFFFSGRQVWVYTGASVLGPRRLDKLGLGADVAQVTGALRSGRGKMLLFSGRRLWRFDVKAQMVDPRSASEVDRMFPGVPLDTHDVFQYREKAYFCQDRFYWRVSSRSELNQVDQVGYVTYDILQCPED
# Type: cell-based
measurementName: Ki

1. CARBOPLATIN: Not Active
2. IVERMECTIN: Not Active
3. CISPLATIN: Not Active
4. OXALIPLATIN: Not Active
5. GOLD SODIUM THIOMALATE: Not Active

----------
# assayProtocol: DRUGMATRIX: GABAA, Muscimol, Central radioligand binding (ligand: [3H] Muscimol)
# Format: cell membranes, Rattus norvegicus, Wistar, Brain, Membrane
# details: Not Active = under 50% inhibition at 10 µM
measurementName: Ki

1. COC1=CC(=O)C[C@@H](C)[C@]12Oc1c(Cl)c(OC)cc(OC)c1C2=O: Not Active
2. NCC[C@H](O)C(=O)N[C@@H]1C[C@H](N)[C@@H](O[C@H]2O[C@H](CN)[C@@H](O)[C@H](O)[C@H]2O)[C@H](O)[C@H]1O[C@H]1O[C@H](CO)[C@@H](O)[C@H](N)[C@H]1O: Not Active
3. N#C[C@H](O[C@@H]1O[C@H](CO[C@@H]2O[C@H](CO)[C@@H](O)[C@H](O)[C@H]2O)[C@@H](O)[C@H](O)[C@H]1O)c1ccccc1: Not Active
